B1: RSPH3 (parent)
chain: FIPAKTGKDVATQILEGELFDFDL

# Variants of: B1
# experimental-details: protein stability index of a GFP-peptide fusion (GPS, HEK-293T) (PSI 1-6); higher = more stable;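 further: lentivirally expressed fusions sorted by FACS into six bins by GFP to DsRed ratio, PSI derived from sequencing read proportions per bin multiplied by bin number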
# condition-notes: c terminus: a fixed tail appended
Listed here are variants together with their documented protein stability index.
Simply state the number, no unit and no words.

Sample answers from the record:
query-sequence | protein stability index
FIPAKTGKDVAMQILEGELFDFDL [T12M] | 2.18
KIPAKTGKDVATQILEGELFDFDL [F1K] | 4.24
FIPAKTGKDVATQILEGELFDFDA [L24A] | 2.67
FIPAKTGKDVAHQILEGELFDFDL [T12H] | 1.43
FIMAKTGKDVATQILEGELFDFDL [P3M] | 1.6

Form field: reported protein stability index of FIKAKTGKDVATQILEGELFDFDL [P3K] 2.4

GET /values?readout=protein stability index&item= FIPYKTGKDVATQILEGELFDFDL [A4Y] 1.54

GET /values?readout=protein stability index&item= FIPAKTGKDVATQILEGPLFDFDL [E18P] 1.87

Which protein stability index value is on record for FIPAKTGKCVATQILEGELFDFDL [D9C] ? 2.43

State the recorded protein stability index for this entry: FIPAKTGKDVATQILEGELPDFDL [F20P] 2.37

Could you share which protein stability index value was measured for FIPAKTGKDWATQILEGELFDFDL [V10W] ? 2.75
